Target: T1, rat NMUR1-ATG (rat, UniProt Q9JJI5 1-425)
T1 sequence (looked up): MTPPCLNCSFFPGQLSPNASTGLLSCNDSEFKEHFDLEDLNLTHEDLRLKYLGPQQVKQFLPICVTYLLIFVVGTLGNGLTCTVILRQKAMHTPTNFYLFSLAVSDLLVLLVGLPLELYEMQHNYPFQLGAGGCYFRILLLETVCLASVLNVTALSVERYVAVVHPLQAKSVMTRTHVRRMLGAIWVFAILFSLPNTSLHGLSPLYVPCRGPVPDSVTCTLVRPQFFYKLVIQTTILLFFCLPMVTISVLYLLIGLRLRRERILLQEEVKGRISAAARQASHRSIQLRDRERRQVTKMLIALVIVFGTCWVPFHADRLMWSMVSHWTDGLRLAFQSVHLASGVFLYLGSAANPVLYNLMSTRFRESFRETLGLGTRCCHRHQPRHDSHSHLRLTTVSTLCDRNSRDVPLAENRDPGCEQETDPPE
Assay: cell-based or functional assay
No end group written: not given here. *: point of attachment. (PEG)2 40 kDa = branched PEG of 40 kDa linked via the Cys side-chain thiol (code C2 = Cys(PEG)2 40 kDa); Succinimide(1-Et,3-yl) = CCN1C(=O)CC(*)C1=O
Let's look at some binders and their measured EC50 (FLIPR).

>  <binder>
Ac-C((PEG)2 40 kDa)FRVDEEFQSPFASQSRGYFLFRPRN-NH2 [NMU12]

>  <EC50 (FLIPR) (nM)>
1000

$$$$
>  <binder>
GYFLFRPRN-NH2 [NMU3]

>  <EC50 (FLIPR) (nM)>
0.7

$$$$
>  <binder>
Ac-C((PEG)2 40 kDa)FQSPFASQSRGYFLFRPRN-NH2 [NMU20]

>  <EC50 (FLIPR) (nM)>
7.2

$$$$
>  <binder>
Ac-C(Succinimide(1-Et,3-yl))GYFLFRPRN-NH2 (SMILES CCN1C(=O)CC(SC[C@H](NC(C)=O)C(=O)NCC(=O)N[C@@H](Cc2ccc(O)cc2)C(=O)N[C@@H](Cc2ccccc2)C(=O)N[C@@H](CC(C)C)C(=O)N[C@@H](Cc2ccccc2)C(=O)N[C@@H](CCCNC(=N)N)C(=O)N2CCC[C@H]2C(=O)N[C@@H](CCCNC(=N)N)C(=O)N[C@@H](CC(N)=O)C(N)=O)C1=O) [NMU6]

>  <EC50 (FLIPR) (nM)>
1

$$$$

Hey, just so you know, these numbers are from patent US20070244048A1.
